Each entry below lists one item and its recorded IC50 value.
Target: α-glucosidase (Saccharomyces cerevisiae)
Construct: purchased Sigma-Aldrich Inc
Sequence (P53341 whole entry): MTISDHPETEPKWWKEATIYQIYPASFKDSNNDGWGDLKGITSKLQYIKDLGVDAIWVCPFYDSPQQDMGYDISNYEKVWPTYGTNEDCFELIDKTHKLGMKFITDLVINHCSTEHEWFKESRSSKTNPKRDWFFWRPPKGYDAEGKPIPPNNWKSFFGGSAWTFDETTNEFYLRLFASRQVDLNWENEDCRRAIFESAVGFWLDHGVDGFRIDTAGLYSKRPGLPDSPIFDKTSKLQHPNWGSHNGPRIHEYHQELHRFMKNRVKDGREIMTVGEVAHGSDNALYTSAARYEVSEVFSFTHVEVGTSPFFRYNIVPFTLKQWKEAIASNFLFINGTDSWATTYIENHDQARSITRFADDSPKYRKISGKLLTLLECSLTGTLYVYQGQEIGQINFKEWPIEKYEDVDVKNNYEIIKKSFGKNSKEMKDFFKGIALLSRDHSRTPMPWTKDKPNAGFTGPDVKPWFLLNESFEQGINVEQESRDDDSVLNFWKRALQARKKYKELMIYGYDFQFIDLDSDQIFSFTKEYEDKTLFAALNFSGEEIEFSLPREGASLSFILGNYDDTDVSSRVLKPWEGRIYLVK
Experiment: α-Glucosidase inhibitory assay (pNPG hydrolysis)
Assay type: biochemical
Details: read-out: α-Glucosidase IC50; mean ± SD of three independent experiments
Protocol: In brief, 140 μL of phosphate buffer (0.2 M, pH 6.8) was added to the 96-well microplate wells, followed by the addition of 10 μL α-glucosidase solution (0.5 U/mL, Sigma-Aldrich Inc., Saint Louis, MO, USA) and 2 μL of the test compound. The control wells contained 2 μL of DMSO in place of the test sample, while the enzyme solution was replaced by an additional 10 μL of phosphate buffer in the background wells. […] Absorbance was measured at 405 nm using a microplate reader. […]
Kindly provide the numeric value in µM only, without the unit symbol.

Worked set:
>>> observed("CCCC[C@@H](CCCCCCCCCC(=O)OC)O[C@@H]1O[C@H](C)[C@H](O)[C@H](O)[C@H]1O[C@@H]1O[C@H](CO)[C@@H](O)[C@H](O[C@@H]2O[C@H](CO)[C@@H](O)[C@H](O)[C@H]2O)[C@H]1O[C@@H]1O[C@@H](C)[C@H](OC(=O)[C@H](C)[C@@H](C)O)[C@@H](O)[C@H]1O")
71.4
>>> observed("CCCC[C@@H](CCCCCCCCCC(=O)OC)O[C@@H]1O[C@H](CO)[C@@H](O)[C@H](O)[C@H]1O[C@@H]1O[C@@H](C)[C@H](O[C@@H]2O[C@@H](C)[C@H](O[C@@H]3O[C@@H](C)[C@H](O)[C@@H](O)[C@H]3O)[C@@H](O[C@@H]3O[C@H](CO)[C@@H](O)[C@H](O)[C@H]3O)[C@H]2O)[C@@H](O)[C@H]1O")
64.9
>>> observed("CCCCC[C@@H](CCCCCCCCCC(=O)OC)O[C@@H]1O[C@H](CO)[C@@H](O)[C@H](O)[C@H]1O[C@@H]1O[C@@H](C)[C@H](O[C@@H]2O[C@@H](C)[C@H](O[C@@H]3O[C@@H](C)[C@H](O)[C@@H](O)[C@H]3O)[C@@H](O[C@@H]3O[C@H](CO)[C@@H](O)[C@H](O)[C@H]3O)[C@H]2O)[C@@H](O)[C@H]1O")
65.1

Prompt: I have this molecule here, CCCC[C@@H](CCCCCCCCCC(=O)OC)O[C@@H]1O[C@H](C)[C@H](O)[C@H](O)[C@H]1O[C@@H]1O[C@@H](C)[C@H](O[C@@H]2O[C@@H](C)[C@H](O[C@@H]3O[C@@H](C)[C@H](O)[C@@H](O)[C@H]3O)[C@@H](O[C@@H]3O[C@H](CO)[C@@H](O)[C@H](O)[C@H]3O)[C@H]2O)[C@@H](O)[C@H]1O , and I need its recorded IC50.
Completion: 55.5

Prompt: CCCC[C@@H](CCCCCCCCCC(=O)OC)O[C@@H]1O[C@H](CO)[C@@H](O)[C@H](O)[C@H]1O[C@@H]1O[C@@H](C)[C@H](O[C@@H]2O[C@@H](C)[C@H](O[C@@H]3O[C@@H](C)[C@H](O)[C@@H](O[C@@H]4O[C@H](CO)[C@@H](O)[C@H](O)[C@H]4O)[C@H]3O)[C@@H](O)[C@H]2O)[C@@H](O)[C@H]1O ?
Completion: 38.2

====

Biological target: PTP1B (Homo sapiens, UniProt P18031)
Construct: purchased MedChemExpress LLC
Experiment: PTP1B inhibitory assay (pNPP hydrolysis)
Format: biochemical
Details: percent inhibition at a concentration of 100 μM
Parameter measured: inhibition at 100 µM (%)
Kindly provide the numeric value in % only, without the unit symbol.

>>> observed("CCCC[C@@H](CCCCCCCCCC(=O)OC)O[C@@H]1O[C@H](C)[C@H](O)[C@H](O)[C@H]1O[C@@H]1O[C@@H](C)[C@H](O[C@@H]2O[C@@H](C)[C@H](O[C@@H]3O[C@@H](C)[C@H](O)[C@@H](O)[C@H]3O)[C@@H](O[C@@H]3O[C@H](CO)[C@@H](O)[C@H](O)[C@H]3O)[C@H]2O)[C@@H](O)[C@H]1O")
15
>>> observed("CCCC[C@@H](CCCCCCCCCC(=O)OC)O[C@@H]1O[C@H](C)[C@H](O)[C@H](O)[C@H]1O[C@@H]1O[C@H](CO)[C@@H](O)[C@H](O[C@@H]2O[C@H](CO)[C@@H](O)[C@H](O)[C@H]2O)[C@H]1O[C@@H]1O[C@@H](C)[C@H](OC(=O)[C@H](C)[C@@H](C)OC(=O)[C@H](C)[C@@H](C)O)[C@@H](O)[C@H]1O")
52.7

Prompt: I have this compound here, CCCCC[C@@H](CCCCCCCCCC(=O)OC)O[C@@H]1O[C@H](CO)[C@@H](O)[C@H](O)[C@H]1O[C@@H]1O[C@@H](C)[C@H](O[C@@H]2O[C@@H](C)[C@H](O[C@@H]3O[C@@H](C)[C@H](O)[C@@H](O)[C@H]3O)[C@@H](O[C@@H]3O[C@H](CO)[C@@H](O)[C@H](O)[C@H]3O)[C@H]2O)[C@@H](O)[C@H]1O , and I need its recorded inhibition at 100 µM.
Completion: 7.78

====

Test system PTP1B (Homo sapiens), IC50 listed for each of the compounds.

Worked set:
>>> observed("CCCC[C@@H](CCCCCCCCCC(=O)OC)O[C@@H]1O[C@H](C)[C@H](O)[C@H](O)[C@H]1O[C@@H]1O[C@H](CO)[C@@H](O)[C@H](O[C@@H]2O[C@H](CO)[C@@H](O)[C@H](O)[C@H]2O)[C@H]1O[C@@H]1O[C@@H](C)[C@H](O)[C@@H](O)[C@H]1O")
"> 100 µM"
>>> observed("CCCCC[C@@H](CCCCCCCCCC(=O)OC)O[C@@H]1O[C@H](CO)[C@@H](O)[C@H](O)[C@H]1O[C@@H]1O[C@@H](C)[C@H](O[C@@H]2O[C@@H](C)[C@H](O[C@@H]3O[C@@H](C)[C@H](O)[C@@H](O[C@@H]4O[C@H](CO)[C@@H](O)[C@H](O)[C@H]4O)[C@H]3O)[C@@H](O)[C@H]2O)[C@@H](O)[C@H]1O")
"> 100 µM"

Now take the following compound into account.
Prompt: Request - read-out IC50 | tested on PTP1B (Homo sapiens) | compound CCCC[C@@H](CCCCCCCCCC(=O)OC)O[C@@H]1O[C@H](CO)[C@@H](O)[C@H](O)[C@H]1O[C@@H]1O[C@@H](C)[C@H](O[C@@H]2O[C@@H](C)[C@H](O[C@@H]3O[C@@H](C)[C@H](O)[C@@H](O[C@@H]4O[C@H](CO)[C@@H](O)[C@H](O)[C@H]4O)[C@H]3O)[C@@H](O)[C@H]2O)[C@@H](O)[C@H]1O
Completion: > 100 µM

====

Each entry below lists one item and its recorded IC50 value.
Target protein (sequence): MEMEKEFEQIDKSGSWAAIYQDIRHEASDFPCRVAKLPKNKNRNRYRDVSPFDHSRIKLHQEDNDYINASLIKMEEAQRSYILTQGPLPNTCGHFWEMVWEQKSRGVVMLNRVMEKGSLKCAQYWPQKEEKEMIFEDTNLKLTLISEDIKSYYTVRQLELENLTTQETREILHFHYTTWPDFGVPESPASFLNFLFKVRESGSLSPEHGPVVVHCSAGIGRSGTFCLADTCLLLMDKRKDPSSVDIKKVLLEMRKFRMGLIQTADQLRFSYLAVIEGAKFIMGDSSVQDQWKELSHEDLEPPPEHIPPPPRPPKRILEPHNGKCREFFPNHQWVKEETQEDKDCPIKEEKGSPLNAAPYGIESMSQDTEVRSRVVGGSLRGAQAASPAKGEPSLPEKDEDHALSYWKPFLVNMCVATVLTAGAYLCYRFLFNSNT

>>> observed("CCCCC[C@@H](CCCCCCCCCC(=O)OC)O[C@@H]1O[C@H](CO)[C@@H](O)[C@H](O)[C@H]1O[C@@H]1O[C@@H](C)[C@H](O[C@@H]2O[C@@H](C)[C@H](O[C@@H]3O[C@@H](C)[C@H](O)[C@@H](O)[C@H]3O)[C@@H](O[C@@H]3O[C@H](CO)[C@@H](O)[C@H](O)[C@H]3O)[C@H]2O)[C@@H](O)[C@H]1O [Compound 8, operculinic acid B methyl ester]")
"> 100 µM"

Prompt: I have this compound here, CCCC[C@@H](CCCCCCCCCC(=O)OC)O[C@@H]1O[C@H](C)[C@H](O)[C@H](O)[C@H]1O[C@@H]1O[C@@H](C)[C@H](O[C@@H]2O[C@@H](C)[C@H](O[C@@H]3O[C@@H](C)[C@H](O)[C@@H](O)[C@H]3O)[C@@H](O[C@@H]3O[C@H](CO)[C@@H](O)[C@H](O)[C@H]3O)[C@H]2O)[C@@H](O)[C@H]1O [Compound 4, Cusponin IV] , and I need its recorded IC50.
Completion: > 100 µM
